- assay comment: basal MM1S mitochondrial membrane potential changes, profiling panel, cell-based, JC-1 fluorescence, 24 h, 100 nL compound (AID 1170); also: test concentration not given here
- experimental context: higher = more signal
Classify by measured z-score: 1 (yes) if it is equal to or exceeds -0.01, 0 (no) if it is smaller.

Check out these entries, answers already filled in.
[
  {
    "molecule": "COc1ccc(CCNC(=O)[C@@]2(Sc3ccc(C)cc3)CC(=O)N(C(C)C)[C@@H]2c2ccc(CO)cc2I)cc1",
    "assigned class": "0 (no)"
  },
  {
    "molecule": "COCCOC(=O)N1C(=O)[C@@]2(c3cc(C#CCCO)ccc31)[C@H](C(N)=O)[C@H]1C(=O)O[C@H](c3ccccc3)[C@H](c3ccccc3)N1[C@@H]2c1ccc(O)cc1",
    "assigned class": "1 (yes)"
  },
  {
    "molecule": "OCCCC1=CC(c2cccs2)N(Cc2cc3c(cc2Br)OCO3)CC1 (stereo not drawn)",
    "assigned class": "0 (no)"
  },
  {
    "molecule": "CC(C)c1ccc(NN2C(C(O)c3ccc(B(O)O)cc3)C=CC3C(=O)N(c4ccccc4)C(=O)C32)cc1 (stereo not drawn)",
    "assigned class": "1 (yes)"
  },
  {
    "molecule": "CO[C@H]1O[C@H](CO)[C@@H](OC(=O)Nc2cccc(F)c2)[C@H](OC(=O)Nc2ccccc2)[C@@H]1OC(=O)Nc1ccccc1",
    "assigned class": "0 (no)"
  },
  {
    "molecule": "CC(C)C(=C=CC[C@H](O)c1ccc(OCCO)cc1)CCO",
    "assigned class": "0 (no)"
  },
  {
    "molecule": "O=C(NCCN1CCOCC1)C1N=C(c2ccc(OCCCO)cc2)N(c2ccccc2)O1 (stereo not drawn)",
    "assigned class": "1 (yes)"
  }
]

# evaluate next
Quick check: does CN(C)C(=O)[C@]1(Cc2ccccc2N=[N+]=[N-])N=C(c2ccc(OCCCO)cc2)O[C@@H]1c1ccccc1N=[N+]=[N-] have z-score greater than or equal to -0.01?
0 (no)

----------
# z-score listing for each entry below
- assay comment: CREB reporter modulators under forskolin, primary screen, cell-based, PC12, CRE-LacZ reporter, forskolin-stimulated (AID 1146);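 also: PC12 cells with 6xCRE LacZ reporter stimulated by forskolin 10 µM; beta-galactosidase reporter signal reflecting CREB driven transcription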
- experimental context: luminescence, 4.5 h, higher = more signal, called active from +8 up or from −8 down
Hey, just send me the number, nothing else.

Answered examples (5):
[
  {
    "compound": "O[C@@H](Cc1ccccc1)[C@H]1C2C=CCCC=C2CN1Cc1cccc(Cl)c1 (some centres not stated)",
    "readout value": 2.78
  },
  {
    "compound": "C=CCNC(=O)[C@@H]1[C@H]2C(=O)O[C@H](c3ccccc3)[C@H](c3ccccc3)N2[C@H](c2ccc(O)cc2)[C@@]12C(=O)Nc1ccc(C#CCNC(N)=O)cc12",
    "readout value": -0.434
  },
  {
    "compound": "CCCCCN1CC=CC23O[C@@H]4/C=C\\CCC(C)OC(=O)C4[C@H]2C(=O)N(C(C)CO)[C@@H]3C1=O (some centres not stated)",
    "readout value": -0.672
  },
  {
    "compound": "COc1ccc(C#Cc2ccc3c(c2)[C@]2(C(=O)N3)[C@H](c3ccccc3OCCO)N3[C@H](c4ccccc4)[C@H](c4ccccc4)OC(=O)[C@H]3[C@@H]2C(=O)Nc2nc3ccccc3s2)cc1",
    "readout value": -1.38
  },
  {
    "compound": "CC(C)NC(=O)[C@@H]1c2ccccc2C(=O)N(C2Cc3ccccc3C2)[C@H]1c1ccc(CO)cc1",
    "readout value": -1.35
  }
]

Entry CC(=O)NCCCC[C@@H]1NC(=O)[C@H]2C[C@@H](C(=O)NCCCCCCNC(=O)CS)[C@@H](c3ccc(O)cc3)N2C1=O has what z-score?
0.14

Entry COCCOC(=O)N1C(=O)[C@@]2(c3cc(C#CCC(C(=O)OC)C(=O)OC)ccc31)[C@H](C(=O)Nc1nc3ccccc3s1)[C@H]1C(=O)O[C@H](c3ccccc3)[C@H](c3ccccc3)N1[C@@H]2c1ccccc1OCCO has what z-score?
0.401

----------
- assay comment: small-molecule binders of probe aNOTCH2, primary screen, biochemical, small-molecule microarray, 635/667 nm fluorescence (AID 1121);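 also: score merges feature fluorescence read at 667 nm with its signal to noise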
- experimental context: higher = more signal
Classify by measured composite z-score: 1 if it is equal to or exceeds -0.1, 0 if it is smaller.

Check out these entries, answers already filled in.
[
  {
    "compound": "COc1cc2c(cc1OC)CN(C(=O)[C@H]1[C@@H]3C(=O)O[C@@H](c4ccccc4)[C@@H](c4ccccc4)N3[C@@H](c3ccc(O)cc3)[C@]13C(=O)Nc1ccccc13)CC2",
    "assigned class": 1
  },
  {
    "compound": "C=C[C@H](C)[C@@H](OC(=O)Nc1ccc(OC)cc1)c1ccc(O)c2ccccc12",
    "assigned class": 0
  },
  {
    "compound": "C=C(CC1([C@@H](NP(=O)(c2ccccc2)c2ccccc2)[C@H]2C[C@@H]2CCCC)CC1)c1ccccc1",
    "assigned class": 1
  },
  {
    "compound": "O=C(NCCN1CCOCC1)C1N=C(c2ccc(OCCCO)cc2)N(c2ccccc2)O1 (centres undefined)",
    "assigned class": 1
  },
  {
    "compound": "CCOC(=O)C[C@H]1[C@H](OC(=O)c2ccc(-c3ccccc3)cc2)[C@@H](NC(=O)Cc2ccc(OC)cc2)c2cc(OCCCO)ccc2N1C(=O)c1ccccc1",
    "assigned class": 0
  }
]

Quick check: does C=CCOC(=O)[C@H]1[C@@H]2C(=O)O[C@@H](c3ccccc3)[C@@H](c3ccccc3)N2[C@@H](c2ccc(OCCOC(=O)[C@H]3C[C@H]4C(=O)N[C@@H](CCCCNC(C)=O)C(=O)N4[C@H]3c3cccc(OCCO)c3)cc2)[C@]12C(=O)Nc1ccccc12 have composite z-score greater than or equal to -0.1?
0

Quick check: does Cc1ccc(S[C@]2(C(=O)NCCCN(C)C)CC(=O)N(Cc3ccccc3C(F)(F)F)[C@@H]2c2ccc(CO)cc2)cc1 have composite z-score greater than or equal to -0.1?
1

Quick check: does CC(C)C(O)C1C=CC2C(=O)NC(=O)C2N1Nc1ccc(Cl)cc1Cl (centres undefined) have composite z-score greater than or equal to -0.1?
1

Quick check: does CCOC(=O)C[C@H]1[C@H](OC(=O)c2ccc(C(=O)c3ccccc3)cc2)[C@@H](NC(=O)CC(C)C)c2cc(OCCCO)ccc2N1C(=O)c1ccc2ccccc2n1 have composite z-score greater than or equal to -0.1?
0

----------
- Tested on: glycogen synthase kinase-3 (GSK3A per assay name; protocol says GSK3B)
- assay comment: GSK3 binders on small-molecule microarrays, primary screen, biochemical, small-molecule microarray, 635 nm fluorescence, GSK3A (AID 1103); also: the record names both GSK3A and GSK3B
- experimental context: small-molecule microarray binding, fluorescence 635 nm; higher = more signal
Classify by measured composite z-score: 1 if it is equal to or exceeds 0.6, -1 if it is smaller.

[
  {
    "compound": "COc1ccc(C#Cc2ccc3c(c2)[C@]2(C(=O)N3)[C@H](C(=O)NC[C@H](O)c3ccccc3)[C@H]3C(=O)O[C@H](c4ccccc4)[C@H](c4ccccc4)N3[C@@H]2c2ccc(O)cc2)cc1",
    "assigned class": 1
  }
]

Quick check: does COC(=O)C[C@H]1O[C@]2(C(=O)N(C)c3ccccc32)[C@@H](C)[C@@H]1[Si](C)(C)F have composite z-score greater than or equal to 0.6?
-1

Quick check: does CN(C)CCCC[C@@H]1NC(=O)[C@H]2C[C@@H](C(=O)NCCCCCCN)[C@@H](c3ccc(O)cc3)N2C1=O have composite z-score greater than or equal to 0.6?
1

----------
- assay comment: osmotic lysis modulators in infected erythrocytes, primary screen, PSAC antagonist project, cell-based, P. falciparum Indochina, OD700, 3 h (AID 1156)
- experimental context: higher = more signal, called active from +8 up or from −8 down
reported property: z-score
Hey, just send me the number, nothing else.

[
  {
    "compound": "C=CC[C@@]1(C(=O)NCCN2CCOCC2)N=C(c2ccc(OCCCO)cc2)O[C@@H]1c1ccccc1N=[N+]=[N-]",
    "z-score": 2.48
  },
  {
    "compound": "CC(CO)N1C(=O)[C@@H]2C3C(=O)OCCC/C=C\\[C@H]3OC23C=CCN(C(C)(C)C)C(=O)[C@@H]13 (some centres undefined)",
    "z-score": 2.51
  },
  {
    "compound": "COCCOC(=O)N1C(=O)[C@@]2(c3ccccc31)[C@H](c1ccc(O)cc1)N1[C@H](c3ccccc3)[C@H](c3ccccc3)OC(=O)[C@H]1[C@@H]2C(=O)Nc1nc2ccccc2s1",
    "z-score": 0.109
  }
]

Read the next record carefully.
Entry CNS(=O)(=O)c1ccc(C)cc1 has what z-score?
-0.886
